- SYSTEM_UNDER_TEST: HCV1b NS5B polymerase delta 21 (Hepatitis C virus genotype 1b)
- Construct: purified HCV1b NS5B polymerase delta 21
- Sequence (P26663 2420-2989): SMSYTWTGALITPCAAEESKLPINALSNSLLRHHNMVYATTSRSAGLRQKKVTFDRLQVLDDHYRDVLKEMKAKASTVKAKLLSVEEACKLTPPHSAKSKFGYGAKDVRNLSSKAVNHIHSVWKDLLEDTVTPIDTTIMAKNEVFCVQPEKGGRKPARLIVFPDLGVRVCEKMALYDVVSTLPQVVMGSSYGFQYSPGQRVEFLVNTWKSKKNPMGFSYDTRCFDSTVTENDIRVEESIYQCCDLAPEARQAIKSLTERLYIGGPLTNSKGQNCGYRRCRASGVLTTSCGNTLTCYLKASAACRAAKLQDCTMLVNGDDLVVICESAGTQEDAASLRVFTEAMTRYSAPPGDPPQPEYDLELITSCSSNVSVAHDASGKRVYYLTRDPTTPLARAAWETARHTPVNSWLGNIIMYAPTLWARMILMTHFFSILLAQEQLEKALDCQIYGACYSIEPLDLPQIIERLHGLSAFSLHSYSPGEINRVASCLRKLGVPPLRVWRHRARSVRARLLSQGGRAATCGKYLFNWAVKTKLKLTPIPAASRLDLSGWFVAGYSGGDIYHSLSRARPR
- EXPERIMENT_DESCRIPTION: RNA-Dependent RNA HCV NS5B (Polymerase) Assay and IC50 Determination
- Assay type: biochemical
pIC50: −log10 of the molar value.
Listing of entries alongside the reported pIC50.

Sample answers from the record:
[[record]]
compound = "CC1CCC(C2=C(c3cc(-c4ccc(N)cc4)sc3C(=O)O)CCN(C)C2)CC1 (stereo not shown) [Example 004]"
assay_value = "> 5.52"

[[record]]
compound = "CCN1CCC(c2cc(C#CC3CCCCC3)sc2C(=O)O)=C(C2CCC(C)CC2)C1 (stereo not shown) [Example 016]"
assay_value = "< 5.00"

[[record]]
compound = "CCN1CCC(c2cc(C#CC(C)(C)C)sc2C(=O)O)=C(C2CCC(C)CC2)C1 (stereo not shown) [Example 014]"
assay_value = "> 5.52"


Now look at this entry.
Query :: Test system HCV1b NS5B polymerase delta 21 (Hepatitis C virus genotype 1b); read-out pIC50; what value for CC1CCC(C2=C(c3cc(-c4ccccc4)sc3C(=O)O)CCN(C(=O)Cc3ccc4ccccc4c3)C2)CC1 (stereo not shown) [Example 096] ?
Result :: < 5.00

* * *

Listing of entries alongside the reported IC50.
- SYSTEM_UNDER_TEST: HCV1b NS5B polymerase delta 21 (Hepatitis C virus genotype 1b)
- Construct: purified HCV1b NS5B polymerase delta 21
- EXPERIMENT_DESCRIPTION: RNA-Dependent RNA HCV NS5B (Polymerase) Assay and IC50 Determination
- Format: biochemical

[[record]]
compound = "CC1CCC(C2=C(c3cc(-c4ccc(NC(=O)c5cscn5)cc4F)sc3C(=O)O)CCN(C)C2)CC1 (stereo not drawn)"
assay_value = "< 3 µM"

[[record]]
compound = "CC1CCC(C2=C(c3cc(-c4ccccc4)sc3C(=O)O)CCN(C(=O)c3ccncc3)C2)CC1 (stereo not drawn)"
assay_value = "3 to 10 µM"

[[record]]
compound = "CC1CCC(C2=C(c3cc(C#CC(C)(C)C)sc3C(=O)O)CN(C)CC2)CC1 (stereo not drawn)"
assay_value = "< 3 µM"

[[record]]
compound = "CC1CCC(C2=C(c3cc(-c4ccccc4)sc3C(=O)O)CCN(C(=O)OC(C)(C)C)C2)CC1 (stereo not drawn)"
assay_value = "> 10 µM"

[[record]]
compound = "Cc1cnc2cc(-c3ccc(-c4cc(C5=C(C6CCC(C)CC6)CN(C)CC5)c(C(=O)O)s4)cc3)nn2c1 (stereo not drawn)"
assay_value = "3 to 10 µM"

[[record]]
compound = "COC(=O)N1CCC(c2cc(-c3ccccc3)sc2C(=O)O)=C(C2CCC(C)CC2)C1 (stereo not drawn)"
assay_value = "3 to 10 µM"


Query :: What value of measured IC50 is listed for CC1CCC(C2=C(c3cc(-c4ccccc4)sc3C(=O)O)CCN(C(=O)c3nn(C)c4ccccc34)C2)CC1 (stereo not drawn) ?
Result :: 3 to 10 µM

Query :: What value of measured IC50 is listed for CC1CCC(C2=C(c3cc(C#CC4CCCC4)sc3C(=O)O)CN(C)CC2)CC1 (stereo not drawn) ?
Result :: < 3 µM

Query :: What value of measured IC50 is listed for CC1CCC(C2=C(c3cc(C#CC4(Cc5ccccc5)CC4)sc3C(=O)O)CCN(C)C2)CC1 (stereo not drawn) ?
Result :: > 10 µM

Query :: What value of measured IC50 is listed for CC1CCC(C2=C(c3cc(C#CC(C)(C)C)sc3C(=O)O)CCN(CCO)C2)CC1 (stereo not drawn) ?
Result :: < 3 µM
